- ASSAY: AUC(0 to infinity) in rat at 2 mg/kg, po
- Format: ADME, organism-based
- Design: dose 2 mg/kg, route oral, time infinity
- TEST PARAMETERS: in vivo
REPORTED METRIC: AUC(0-inf)
For clarity, give the value followed by its unit.

// query Given the compound `C[C@@H]1CN(c2cnc3c(C#N)nn([C@H](C)c4ccc(Cl)cc4Cl)c3n2)CC[C@@H]1N1CCC[C@H]1CO` , what is its reported AUC(0-inf)?
// result 23.2 ng·h/mL

// query Given the compound `C[C@@H]1CC(c2cnc3c(C#N)nn([C@H](C)c4ccc(Cl)cc4Cl)c3n2)=CC[C@@H]1N1CCC[C@H]1CO` , what is its reported AUC(0-inf)?
// result 125 ng·h/mL

====

- TARGET DESC: C-C chemokine receptor type 4 (Homo sapiens, UniProt P51679)
- Sequence (P51679 whole entry): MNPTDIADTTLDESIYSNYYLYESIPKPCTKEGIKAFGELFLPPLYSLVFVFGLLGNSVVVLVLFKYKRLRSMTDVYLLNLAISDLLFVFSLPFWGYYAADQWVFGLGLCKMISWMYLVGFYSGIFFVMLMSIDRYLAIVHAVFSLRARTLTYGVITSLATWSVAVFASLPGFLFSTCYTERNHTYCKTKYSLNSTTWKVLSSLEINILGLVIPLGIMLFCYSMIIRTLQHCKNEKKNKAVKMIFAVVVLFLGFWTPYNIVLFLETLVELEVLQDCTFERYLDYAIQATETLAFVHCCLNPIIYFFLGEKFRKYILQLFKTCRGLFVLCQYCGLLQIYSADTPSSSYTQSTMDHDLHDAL
- ASSAY: Antagonist activity at human CCR4 expressed in rat chem-5 cells assessed as inhibition of CCL22-induced calcium flux measured at 2.5 secs time interval for 45 secs by fluorescence assay
Give pIC50 for every item shown.
Value format note: pIC50 is -log10 of concentration (mol/L); just state the number.

// query Given the molecule `Cc1nn([C@H](C)c2ccc(Cl)cc2Cl)c2nc(N3CC[C@H](N4CCC[C@H]4C)[C@H](C)C3)cnc12` , what is its reported pIC50?
// result 7.33

// query Given the molecule CC(c1ccc(Cl)cc1Cl)n1ncc2ncc(C3=CCN(C(=O)[C@H]4CCCCN4)CC3)nc21 (stereo partly drawn) , what is its reported pIC50?
// result 6.56

// query Given the molecule `Cc1nn([C@H](C)c2ccc(Cl)cc2Cl)c2nc(N3CC[C@H](N4CCCC4)[C@H](C)C3)cnc12` , what is its reported pIC50?
// result 7.16

// query Given the molecule `Cc1nn([C@H](C)c2ccc(Cl)cc2Cl)c2nc(N3CC[C@H](N4CCC[C@H]4CCC(N)=O)[C@H](C)C3)cnc12` , what is its reported pIC50?
// result 7.43

// query Given the molecule `Cc1nn([C@H](C)c2ccc(Cl)cc2Cl)c2nc(N3CC[C@@H](N4CCCCC4)[C@@H](C)C3)cnc12` , what is its reported pIC50?
// result 6.10

// query Given the molecule CC(c1ccc(Cl)cc1Cl)n1ncc2ncc(N3CCC(N4CCCCC4)CC3)nc21 (stereo not drawn) , what is its reported pIC50?
// result 5.59

// query Given the molecule `C[C@@H]1CC(c2cnc3c(C#N)nn([C@H](C)c4ccc(Cl)cc4Cl)c3n2)=CC[C@@H]1N1CCC[C@H]1C` , what is its reported pIC50?
// result 7.47

====

- ASSAY: AUCinfinity in rat at 0.5 mg/kg, iv
- Format: ADME, organism-based
- Set-up: dose 0.5 mg/kg, route intravenous, time infinity
- TEST PARAMETERS: in vivo
REPORTED METRIC: AUC(0-inf) (ng·h/mL)
Answer in ng·h/mL, number only, no unit symbol.

// query Given the compound Cc1nn(C(C)c2ccc(Cl)cc2Cl)c2nc(N3CCC(N4CCCCC4)C(C)C3)cnc12 (stereo not given) , what is its reported AUC(0-inf)?
// result 217

// query Given the compound CC1CN(c2cnc3c(C#N)nn(C(C)c4ccc(Cl)cc4Cl)c3n2)CCC1N1CCCCC1 (stereo not given) , what is its reported AUC(0-inf)?
// result 82

// query Given the compound CC1CN(c2cnc3cnn(C(C)c4ccc(Cl)cc4Cl)c3n2)CCC1N1CCCCC1 (stereo not given) , what is its reported AUC(0-inf)?
// result 68

// query Given the compound CC1CN(c2cnc3c(C(F)(F)F)nn(C(C)c4ccc(Cl)cc4Cl)c3n2)CCC1N1CCCCC1 (stereo not given) , what is its reported AUC(0-inf)?
// result 148

// query Given the compound CC1CN(c2cnc3c(C(N)=O)nn(C(C)c4ccc(Cl)cc4Cl)c3n2)CCC1N1CCCCC1 (stereo not given) , what is its reported AUC(0-inf)?
// result 82
